- assay-explanation: Kinetic solubility of the compound at pH 7.4 after 2 hrs by shake flask method-based HPLC-DAD analysis
- Format: physicochemical
- study-conditions: buffer, read-out: Kinetic_solubility
List of solubility kinetic at 2 h values.
Please state the figure in µM; there is no need to write the unit.

Solved entries (count: 2):
compound-string: Cc1cc(NCc2nccn2C)n2nc(C)cc2n1
unit-descriptor: µM
measured: 182
--
compound-string: Cc1cc(NCc2ccccn2)n2ncc(C3=CCC(F)(F)CC3)c2n1
unit-descriptor: µM
measured: 5

Fill blank: measured solubility kinetic at 2 h of the molecule `Cc1cc(NCc2nccs2)n2nc(C)c(-c3ccccc3)c2n1` is ____.
108

Fill blank: measured solubility kinetic at 2 h of the molecule `Cc1cc(NCc2ccccn2)n2ncc(C3=CCOCC3)c2n1` is ____.
171

Fill blank: measured solubility kinetic at 2 h of the molecule `Cc1cc(OCc2ccccn2)n2nc(C)c(-c3ccccc3)c2n1` is ____.
25.6

Fill blank: measured solubility kinetic at 2 h of the molecule `Cc1cc(NCc2ccccn2)n2ncc(-c3ccn(C)n3)c2n1` is ____.
188

Fill blank: measured solubility kinetic at 2 h of the molecule `Cc1cc(NCc2ccccn2)n2ncc(-c3ccccc3F)c2n1` is ____.
5
